- TARGET: Ebola GP ectodomain (Mayinga, Zaire, 1976) with the mucin-like domain deleted (Zaire ebolavirus (Mayinga, 1976), UniProt Q05320 33-650)
MEASURED QUANTITY: Kd (nM)
API: value field is a number in nM; no unit string.

Request: Looking for the measured Kd of mAb114 UCA VH T41P-P60A-G61D-E72D-G88E-V96A IgG (antibody, V domains shown) VH: EVQLVESGGGLVQPGGSLRLSCAASGFTFSSYDMHWVRQAPGKGLEWVSAIGTAGDTYYADSVKGRFTISRDNAKNSLYLQMNSLRAEDTAVYYCARSDRGVAGLFDSWGQGTLVTVSS VL: DIQMTQSPSSLSASVGDRVTITCRASQGISNYLAWYQQKPGKVPKLLIYAASTLQSGVPSRFSGSGSGTDFTLTISSLQPEDVATYYCQKYNSAPLTFGGGTKVEIK , can you help?
Result: 33

Request: Looking for the measured Kd of mAb114 UCA VH V96A IgG (antibody, V domains shown) VH: EVQLVESGGGLVQPGGSLRLSCAASGFTFSSYDMHWVRQATGKGLEWVSAIGTAGDTYYPGSVKGRFTISRENAKNSLYLQMNSLRAGDTAVYYCARSDRGVAGLFDSWGQGTLVTVSS VL: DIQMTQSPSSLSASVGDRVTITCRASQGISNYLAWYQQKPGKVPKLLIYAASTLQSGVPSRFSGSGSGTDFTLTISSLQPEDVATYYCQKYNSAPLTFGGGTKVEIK , can you help?
Result: 110
